- Test system: Phytophthora infestans
- test-protocol: whole plant or invertebrate
- Assay type: in vivo
- run-conditions: tomato late blight; spray the day before inoculation; compounds without asterisk (not 40 or 10 ppm)
Assign criterion met whenever Test C disease rating (100 = 100% disease control, 0 = no disease control) does not fall below 50%; assign criterion not met whenever it does.

{"compound": "Cc1ccc(C)c(CC(=O)N2CCC(c3nc(C(=O)N(C)[C@@H]4CCc5ccccc54)cs3)CC2)c1 [compound 130]", "class-name": "criterion met"}
{"compound": "Cc1cc(C(F)(F)F)nn1CC(=O)N1CCC(c2cc(C(=O)N(C)[C@@H]3CCCc4ccccc43)on2)CC1 [compound 203]", "class-name": "criterion met"}
{"compound": "C[C@H](c1ccccc1)N(C)C(=O)c1csc(C2CCN(C(=O)Cc3cccnc3)CC2)n1 [compound 83]", "class-name": "criterion not met"}
{"compound": "Cc1ccc([C@@H](C)N(C)C(=O)c2csc(C3CCN(C(=O)Cc4cc(C)ccc4C)CC3)n2)cc1 [compound 62]", "class-name": "criterion met"}
{"compound": "Cc1nc(CC(=O)N2CCC(c3nc(C(=O)N(C)[C@H](C)c4ccccc4)cs3)CC2)cs1 [compound 91]", "class-name": "criterion met"}
